Experiment: chemical genetic growth profiling, strain panel (AID 1159580);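 also: tested at 20 µM; growth read once vehicle control cultures reached saturation at 30 °C; 1 = growth at the plate median or of vehicle wells; lower values mean less growth of the strain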
Details: S. cerevisiae deletion strains, growth OD, locus YNL209W, strain ssb2, stronger effect = lower value
The campaign covered roughly 5,500 compounds. About 2,000 (36%) were called active. Roughly 18% stayed inconclusive and do not appear here. The list shows a part of the results.

[
  {
    "COMPOUND": "CCNc1nc(Cl)nc(NCC)n1",
    "normalized growth": 0.992
  },
  {
    "COMPOUND": "c1ccc([C@H]2CN3CCSC3=N2)cc1",
    "normalized growth": 0.984
  },
  {
    "COMPOUND": "O=C(NC1CCCCC1)NC1CCCCC1",
    "normalized growth": 0.974
  },
  {
    "COMPOUND": "COc1cc2c(cc1OC)[C@@H]1C(=O)c3ccc4c(c3O[C@@H]1CO2)CC(C(C)C)O4 (some centres not stated)",
    "normalized growth": 0.995
  },
  {
    "COMPOUND": "NC[C@H]1O[C@H](O[C@H]2[C@H](O)[C@@H](O[C@H]3O[C@H](CO)[C@@H](O)[C@H](N)[C@H]3O)[C@H](N)C[C@@H]2N)[C@H](N)C[C@@H]1O",
    "normalized growth": 1.01
  },
  {
    "COMPOUND": "O=C(OC[C@H]1O[C@H](OC(=O)c2cc(O)c(O)c(OC(=O)c3cc(O)c(O)c(O)c3)c2)[C@H](OC(=O)c2cc(O)c(O)c(OC(=O)c3cc(O)c(O)c(O)c3)c2)[C@@H](OC(=O)c2cc(O)c(O)c(OC(=O)c3cc(O)c(O)c(O)c3)c2)[C@@H]1OC(=O)c1cc(O)c(O)c(OC(=O)c2cc(O)c(O)c(O)c2)c1)c1cc(O)c(O)c(OC(=O)c2cc(O)c(O)c(O)c2)c1",
    "normalized growth": 0.363
  },
  {
    "COMPOUND": "CC1=C(O)C(=O)C=C2C1=CC=C1[C@@]2(C)CC[C@@]2(C)[C@@H]3C[C@](C)(C(=O)O)CC[C@]3(C)CC[C@]12C",
    "normalized growth": 0.303
  },
  {
    "COMPOUND": "CC(=O)Oc1cc2c(c(C)c1OC(C)=O)CC1OC13C2(C)CCC1(C)C2CC(C)(C(=O)O)CCC2(C)CCC13C (configuration not stated)",
    "normalized growth": 0.994
  },
  {
    "COMPOUND": "CC(=O)CC1CCCCN1 (configuration not stated)",
    "normalized growth": 1.02
  },
  {
    "COMPOUND": "O=c1c(O)c(-c2ccc(O)c(O)c2)oc2cc(O)ccc12",
    "normalized growth": 0.949
  },
  {
    "COMPOUND": "NCCNCCNCCN",
    "normalized growth": 0.998
  },
  {
    "COMPOUND": "COc1ccc(C(=O)c2ccc(O)cc2)c(O)c1O",
    "normalized growth": 0.975
  }
]

----------
Test: chemical genetic growth profiling, strain panel (AID 1159580);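 also: tested at 20 µM; growth read once vehicle control cultures reached saturation at 30 °C; 1 = growth at the plate median or of vehicle wells; lower values mean less growth of the strain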
Conditions: S. cerevisiae deletion strains, growth OD, locus YLR330W, strain CHS5, stronger effect = lower value
Hit rate of the full screen: of about 5,500 compounds, about 2,000 (36%) were called active. About 18% were inconclusive and are not listed. This is one part of the list. *1 amine or outer side, *2 acyl side, *3 side chain or, on linkers, in order; H or OH if unused. Where a SMILES comes first, the peptide text is derived from it. Bridges are numbered along the chain shown (N, C = ends). [ ]: non-standard residue; d: D form. The star is where a group is joined. ξ: configuration not given here. ΔAla(E,3-NHCONH2) = NC(=O)N/C=C(/N)C(=O)O; X2 = NC1=NCCC(C(N[*:1])C(=O)[*:2])N1; Octanoyl(6-Me) = CCC(C)CCCCC(=O)*; ξβ3hOrn = NCCCC(N)CC(=O)*; Dab = NCC[CH](N)C(=O)O; Dap = NC[CH](N)C(=O)O
# normalized growth listing for each entry below

[
  {
    "MOLECULE": "O=C(O)[C@H](O)[C@@](O)(Cc1ccc(O)cc1)C(=O)O",
    "normalized growth": 1.02
  },
  {
    "MOLECULE": "OCCN1CCN(CCCN2c3ccccc3Sc3ccc(C(F)(F)F)cc32)CC1",
    "normalized growth": 1.03
  },
  {
    "MOLECULE": "CN1C(=O)CCS(=O)(=O)C1c1ccc(Cl)cc1 (stereo not given)",
    "normalized growth": 1.01
  },
  {
    "MOLECULE": "COc1cccc(O)c1O",
    "normalized growth": 1.03
  },
  {
    "MOLECULE": "CC(=O)[C@@]1(O)CCC2C3CCC4=CC(=O)CC[C@]4(C)C3CC[C@@]21C (stereo not given in full)",
    "normalized growth": 1
  },
  {
    "MOLECULE": "CCN(CC)CCNC(=O)c1cc(Cl)c(N)cc1OC",
    "normalized growth": 1
  },
  {
    "MOLECULE": "CC(=O)OCC(=O)[C@@]1(O)CCC2C3CC[C@@H]4C[C@H](OC(C)=O)CC[C@]4(C)C3C(=O)C[C@@]21C (stereo not given in full)",
    "normalized growth": 1
  },
  {
    "MOLECULE": "CN1CCN(CCCN2c3ccccc3Sc3ccc(C(F)(F)F)cc32)CC1",
    "normalized growth": 0.0585
  },
  {
    "MOLECULE": "Cc1c(NC(=O)c2cccnc2)c(=O)n(-c2ccccc2)n1C",
    "normalized growth": 1
  },
  {
    "MOLECULE": "NCCCC(N)CC(=O)NCC1NC(=O)C(CO)NC(=O)C(N)CNC(=O)C(C2CCN=C(N)N2)NC(=O)/C(=C\\NC(N)=O)NC1=O (stereo not drawn) (H-[Dap]S[Dap](ξβ3hOrn)[ΔAla(E,3-NHCONH2)][X2]; lactam 1-C; configuration not given here)",
    "normalized growth": 1
  },
  {
    "MOLECULE": "CCC1(CC)C(=O)C=CNC1=O",
    "normalized growth": 1.01
  },
  {
    "MOLECULE": "NCC1OC(OC2C(CO)OC(OC3C(O)C(N)CC(N)C3OC3OC(CO)C(O)CC3N)C2O)C(N)C(O)C1OC1OC(CO)C(O)C(O)C1O (stereo not given)",
    "normalized growth": 0.985
  },
  {
    "MOLECULE": "CC(=O)OCC(=O)[C@@]1(O)CCC2C3CCC4=CC(=O)CC[C@]4(C)C3[C@@H](O)C[C@@]21C (stereo not given in full)",
    "normalized growth": 1.01
  },
  {
    "MOLECULE": "CC(=O)NO",
    "normalized growth": 0.996
  },
  {
    "MOLECULE": "CC(=O)CC1CCCCN1 (stereo not given)",
    "normalized growth": 1.01
  },
  {
    "MOLECULE": "Cc1cc(=O)n(-c2ccccc2)n1C",
    "normalized growth": 1.01
  },
  {
    "MOLECULE": "C[C@]12CCC(=O)C=C1CCC1C2C(=O)C[C@@]2(C)C1CC[C@]2(O)C(=O)CO (stereo not given in full)",
    "normalized growth": 1
  },
  {
    "MOLECULE": "NC(=O)NO",
    "normalized growth": 1.01
  },
  {
    "MOLECULE": "COc1cc2c(cc1OC)[C@@]13CCN4CC5=CCOC6CC(=O)N2C1[C@H]6[C@H]5C[C@H]43 (stereo not given in full)",
    "normalized growth": 1.01
  },
  {
    "MOLECULE": "CCC(C)CCCCC(=O)NC(CCN)C(=O)NC(C(=O)NC(CCN)C(=O)NC1CCNC(=O)C(C(C)O)NC(=O)C(CCN)NC(=O)C(CCN)NC(=O)C(CC(C)C)NC(=O)C(Cc2ccccc2)NC(=O)C(CCN)NC1=O)C(C)O (stereo not given) ({Octanoyl(6-Me)}-[Dab]T[Dab][Dab][Dab]FL[Dab][Dab]T; lactam 4-C; configuration not given here)",
    "normalized growth": 1
  },
  {
    "MOLECULE": "CC(=O)O[C@@H]1CC[C@]2(C)C3CC[C@]4(C)C(=O)CCC4C3CC[C@H]2C1 (stereo not given in full)",
    "normalized growth": 0.933
  },
  {
    "MOLECULE": "C1CCC(C(CC2CCCCN2)C2CCCCC2)CC1 (stereo not given)",
    "normalized growth": 0.381
  },
  {
    "MOLECULE": "COc1ccc2c(c1OC)OC[C@@H](c1ccc(OC)c(OC)c1OC)C2",
    "normalized growth": 1.01
  },
  {
    "MOLECULE": "CC1=CC2C(C(C)C)CCC(C)(O)C2CC1 (stereo not given)",
    "normalized growth": 0.982
  },
  {
    "MOLECULE": "CC(=O)O[C@H]1CC[C@]2(C)C3CC(=O)[C@]4(C)C(C(C)=O)=CCC4C3CC[C@H]2C1 (stereo not given in full)",
    "normalized growth": 0.969
  }
]
